Reported Ki values for the following molecules.
- Target Or Test System: Neutrophil elastase (Homo sapiens, UniProt P08246)
- Experiment Summary: Inhibitory activity against human leukocyte elastase (HLE) was determined
Readout Name: Ki (µM)

Query Smiles: C[C@@H](O)[C@H]1C(=O)N2S/C(=C/C(=O)OC(C)(C)C)C[C@H]12
Readout Name: Ki
Endpoint Unit: µM
Qualifier Symbol: =
Endpoint Value: 3.2
//
Query Smiles: C[C@@H](O)[C@H]1C(=O)N2S/C(=C/C(=O)OC(C)(C)C)S[C@H]12
Readout Name: Ki
Endpoint Unit: µM
Qualifier Symbol: =
Endpoint Value: 1.5
//
Query Smiles: C[C@@H](O)[C@H]1C(=O)N2C/C(=C/C(=O)OC(C)(C)C)S[C@H]12
Readout Name: Ki
Endpoint Unit: µM
Qualifier Symbol: =
Endpoint Value: 4
//
Query Smiles: C[C@@H](OC(=O)Cc1ccccc1)[C@H]1C(=O)N2S/C(=C/C(=O)OC(C)(C)C)S[C@H]12
Readout Name: Ki
Endpoint Unit: µM
Qualifier Symbol: =
Endpoint Value: 0.4
//
Query Smiles: C[C@@H](O)[C@@H]1C(=O)N2S/C(=C/C(=O)OC(C)(C)C)S[C@@H]12
Readout Name: Ki
Endpoint Unit: µM
Qualifier Symbol: >
Endpoint Value: 100
//
Query Smiles: C[C@@H](O)[C@H]1C(=O)N2S/C(=C\C(=O)OC(C)(C)C)S[C@H]12
Readout Name: Ki
Endpoint Unit: µM
Qualifier Symbol: =
Endpoint Value: 12
//
Query Smiles: C[C@@H](O)[C@H]1C(=O)N2C/C(=C/C(=O)OC(C)(C)C)C[C@H]12
Readout Name: Ki
Endpoint Unit: µM
Qualifier Symbol: >
Endpoint Value: 100

---

- Target Or Test System: Neutrophil elastase (Homo sapiens) (UniProt P08246)
- Sequence (whole entry): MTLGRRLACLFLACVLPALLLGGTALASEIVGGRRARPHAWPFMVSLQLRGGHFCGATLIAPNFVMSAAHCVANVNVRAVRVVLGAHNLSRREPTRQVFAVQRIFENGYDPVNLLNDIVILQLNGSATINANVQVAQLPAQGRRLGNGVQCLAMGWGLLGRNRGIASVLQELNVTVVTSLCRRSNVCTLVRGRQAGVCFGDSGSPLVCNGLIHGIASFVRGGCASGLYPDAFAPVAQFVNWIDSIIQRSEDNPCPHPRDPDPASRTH
Readout Name: kOH (M⁻¹ s⁻¹)

Query Smiles: C[C@@H](OC(=O)Cc1ccccc1)[C@H]1C(=O)N2S/C(=C/C(=O)OC(C)(C)C)S[C@H]12
Readout Name: kOH
Endpoint Value: 0.04

Query Smiles: C[C@@H](O)[C@@H]1C(=O)N2S/C(=C/C(=O)OC(C)(C)C)S[C@@H]12
Readout Name: kOH
Endpoint Value: 10.3

Query Smiles: C[C@@H](O)[C@H]1C(=O)N2S/C(=C\C(=O)OC(C)(C)C)S[C@H]12
Readout Name: kOH
Endpoint Value: 3

Query Smiles: C[C@@H](O)[C@H]1C(=O)N2S/C(=C/C(=O)OC(C)(C)C)S[C@H]12
Readout Name: kOH
Endpoint Value: 12
